Molecular target: T1, Sla1-3, P32790
T1 sequence (P32790 344-424, looked up): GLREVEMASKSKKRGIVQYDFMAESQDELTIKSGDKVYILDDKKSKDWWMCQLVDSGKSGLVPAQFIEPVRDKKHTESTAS
Assay: SPOT array
Details: median of control spots 5475
measurement label: SPOT intensity

These recorded examples may help you get a feel for the data.
# binder, value reported
rows = [
    ("RMVRRRPLRVQFSAR", 128),
    ("AKDLIVPRRPEWNEG", 2730),
    ("RRASLFPRDPKRLRP", 158),
]

a: DRIRMFIRFPKFLLE
b: DDEDVPPQLPTRTKS
Inquiry: Hi there! Just curious which has the higher SPOT intensity between a and b . Give the label of your selection.
Reply text: a
(a: 24, b: 1)

1: VQPTAAPATPPRHIS
2: QQEQNTPPLPPKPKS
3: ATNVPVAPPPPPASL
4: RSLRKRPTSPSISGS
5: RSRRSSFAYPQQVAI
Inquiry: Place the items in sequence of falling SPOT intensity. Would you mind listing the labels in the order asked for?
Reply text: 4, 5, 1, 2, 3
(4: 44, 5: 29, 1: 5, 2: 3, 3: 0)

1: SSSSSPPPLPTRRDH
2: VPPPMQPPPIESSNL
Inquiry: Hi there! Just curious which has the higher SPOT intensity between 1 and 2 . Give the label of your selection.
Reply text: 1
